Test: MITF transcriptional activity suppression – cell-based, SK-MEL-5, single point, luciferase, primary screen (AID 488899)
Conditions: SK-MEL-5 TRPM1 promoter luciferase, 24 h; at 12.5 µM; active compounds read high
The whole screen tested about 330,000 compounds, of which about 2,800 (0.85%) were called active. The sample as a whole holds a higher share of actives than the screen did.
experimental.readout: inhibition

compound	endpoint.value
CC[C@]1(O)CC2CN(CCc3c([nH]c4ccccc34)[C@@](C(=O)OC)(c3cc4c(cc3OC)N(C=O)[C@H]3[C@@](O)(C(=O)OC)[C@H](OC(C)=O)[C@]5(CC)C=CCN6CC[C@]43[C@@H]65)C2)C1 (some centres undefined)	45.8% (inactive)
N#CC1(Nc2ccc(-c3ccc(Cl)cc3)cc2)CCCC1	-58.9% (inactive)
CC(=O)c1ccc(N2CCN(C(=O)CCNC(=O)Cn3ccc4ccccc4c3=O)CC2)cc1	0.055% (inactive)
COc1ccc(CC(=O)NC2CCSc3ccccc32)cc1OC (centres undefined)	3.11% (inactive)
CN(C)CCN=c1cc(-c2ccccc2)oc2ccc(Cl)cc12	-36.2% (inactive)
CN(C(=O)CSc1nncc2ccccc12)C1CCCCC1	-4.81% (inactive)
CCN1/C(=C\c2ccc3ccccc3[n+]2CC)Sc2cc(C)ccc21	104% (active)
COc1ccc([N+](=O)[O-])cc1N(CC(O)Cn1nnc2ccccc21)S(=O)(=O)c1ccc(C)cc1 (centres undefined)	-0.297% (inactive)
COC(=O)C1CCN(CC(N)=O)CC1	-7.19% (inactive)

* * *

Test: MITF transcriptional activity suppression – cell-based, SK-MEL-5, single point, luciferase, primary screen (AID 488899)
Conditions: SK-MEL-5 TRPM1 promoter luciferase, 24 h; at 12.5 µM; active compounds read high
The campaign covered roughly 330,000 compounds. About 2,800 (0.85%) were called active. Shown is part of a subset that was picked to be rich in actives.
experimental.readout: inhibition (%)

                                   compound  experimental_readout  unit_name  endpoint_value
0  CCc1ccc(OCC2c3cc(OC)c(OC)cc3CCN2C(C)=O)cc1 (stereo unspecified)            inhibition          %           -0.63
1  Cc1ccc(S(=O)(=O)NCc2ccc(C(=O)NC3CCC(C)CC3)cc2)cc1 (stereo unspecified)            inhibition          %           -5.23
2  COc1ccc(Cc2nnc(N/N=C/c3ccccc3O)[nH]c2=O)cc1OC            inhibition          %              64
3         CCCCCCCCn1c2c(c(=N)c3c1CCC3)CCCC2            inhibition          %            77.2
4  COc1cc2c(cc1OC)CN(CC(=O)Nc1ccc(F)cc1)CC2            inhibition          %            4.57
5  COc1cc([N+](=O)[O-])ccc1NC(=O)COC(=O)CCOc1ccc(C)cc1            inhibition          %            8.46

* * *

Catalogue of molecules with associated inhibition
Assay: MITF transcriptional activity suppression – cell-based, SK-MEL-5, single point, luciferase, primary screen (AID 488899)
Conditions: SK-MEL-5 TRPM1 promoter luciferase, 24 h; at 12.5 µM; active compounds read high
Out of some 330,000 compounds screened, about 2,800 (0.85%) were called active. The list comes from a sample in which actives are over-represented; it also holds close analogues and randomly drawn compounds.

molecule	inhibition, %
C#CCOCCOCCOCCNc1nc(N2CCN(C(=O)CCCCCCCCCCNC(=O)Cn3cc(CCCCCN)nn3)CC2)nc(N2CCN(C(=O)CCCCCCCCCCNC(=O)[C@H](CO)n3cc(CCCSC)nn3)CC2)n1	23.1
O=C1C=C(NS(=O)(=O)c2ccccc2)C(=O)c2ccccc21	65.7
O=C(N/N=C\c1ccc(Br)cc1)c1ccc(Cn2cccn2)o1	-24.2
COc1ccc(S(=O)(=O)/N=C2\C=C(NS(=O)(=O)c3ccccc3)C(=O)c3ccccc32)cc1	12.7
O=C(O)c1ccc(S(=O)(=O)c2ccccc2)s1	11.8
CCCCN(C(=O)c1ccc(OC(F)(F)F)cc1)c1c(N)n(CCC)c(=O)[nH]c1=O	-1.56
O=C(CN1CCN(c2ncccn2)CC1)Nc1ccccc1C(F)(F)F	18.5
O=C(OC12CC3CC(CC(C3)C1)C2)c1ccc(NCc2cc(O)ccc2O)cc1	66.6
CSCCC(NS(=O)(=O)c1ccc(C)cc1)C(=O)N(C)CC(=O)Nc1ccccc1Br (configuration not stated)	11.6
C[C@@H](NC(=O)c1nc[nH]c1C(=O)N1CCN(C(=O)OC(C)(C)C)CC1)c1ccccc1	-1.66
O=C(Nc1ccccc1)C1CCN(C(=O)c2ccc(Br)cc2)CC1	-9.91
C[C@H](CO)N1C[C@H](C)[C@H](CN(C)CC2CC2)Oc2ccc(NC(=O)CCN3CCOCC3)cc2C1=O	-4.39
Oc1ccccc1CN1CCN(C(c2ccccc2)c2ccccc2)CC1	5.95
O=S(=O)(NCCNS(=O)(=O)c1ccccc1)c1ccccc1	11.2
CC(OC(=O)CNC(=O)c1ccc(Cl)c([N+](=O)[O-])c1)C(=O)NCc1ccco1 (configuration not stated)	-4.83
C#CCOCCOCCOCCNc1nc(N2CCN(C(=O)CCCCCCCCCCNC(=O)[C@H](CCCCN)n3cc(C)nn3)CC2)nc(N2CCN(C(=O)CCCCCCCCCCNC(=O)[C@H](CO)n3cc(CCCSC)nn3)CC2)n1	47.5
CC(C)(C)n1nc(Cc2cccc3ccccc23)c(C#N)c1N	4.42
C#CCOCCOCCOCCNc1nc(N2CCN(C(=O)CCCCCCCCCCNC(=O)[C@H]([C@@H](C)CC)n3cc(CCCCN=C(N)N)nn3)CC2)nc(N2CCN(C(=O)CCCCCCCCCCNC(=O)[C@H](CO)n3cc(CCCSC)nn3)CC2)n1	72.9
O=C(c1cccc(S(=O)(=O)N2CCCCCC2)c1)N1CCN(Cc2ccccc2)CC1	-3.86
CC(=O)c1ccc(S(=O)(=O)N2CCC3(CC2)OCCO3)cc1	8.67
CCC1=C(OC(=O)N(CC)CC)N2C(=O)OC(=NCCc3c[nH]c4ccccc34)[C@]2(C)[C@H]2C1=CC[C@H]1C(=O)N(CC)C(=O)[C@H]12	1.76
CCC1SC(CC)C(=O)N(CC(=O)NC2CCCCC2)C1=O (configuration not stated)	13.1
CC(C)OC(=O)c1ccc(NCc2cc(O)ccc2O)cc1Cl	5.02
O=C(CC1Sc2ccccc2NC1=O)NNc1ccc(Cl)c(Cl)c1 (configuration not stated)	-0.562
O=C(c1ccc2nc(N3CCOCC3)sc2c1)N1CCN(c2ccc(Cl)cc2)CC1	4.87
O=C(O)c1cc(S(=O)(=O)N(Cc2ccccc2)c2cccc(C(F)(F)F)c2)ccc1Cl	11.3
O=C(NN=Cc1ccc([N+](=O)[O-])cc1)C1CC1	-20.4
CC(=O)c1ccc(S(=O)(=O)N2CCN(c3nc4c(C)c(C)ccc4cc3C#N)CC2)cc1	3.2
COCCN1C(=O)C(=O)/C(=C(/O)c2ccc(S(=O)(=O)N3CCOCC3)cc2)C1c1ccc(OC)c(OC)c1 (configuration not stated)	2.98
O=[N+]([O-])c1ccc(C=NN=Cc2ccc([N+](=O)[O-])cc2)cc1	-1.22
CC1(C)CC(N2CCN(C(c3ccccc3)c3ccccc3)CC2)=CC(=[N+]2CCCCC2)C1	94
Cc1c(Cl)c([N+](=O)[O-])nn1Cc1ccc(C(=O)N/N=C\c2cc(Cl)ccc2O)o1	65.8
CCc1nn(-c2cc(Oc3cccc4ccccc34)nc(-c3ccccc3)n2)c(N)c1C#N	86.1
O=C(Nc1ccncc1)c1ccc(Cl)c([N+](=O)[O-])c1	-0.779
CC(=O)N1CC[n+]2c(-c3ccc([N+](=O)[O-])cc3)csc21	-4.65
COc1cccc(Oc2ccc(N)cc2)c1	-4.14
CCOc1ccc(NC(=S)N2CCC(N(C)CC3CCCO3)CC2)cc1 (configuration not stated)	-2.52
